- Assay Details: chemical genetic growth profiling, strain panel (AID 1159580);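 further: tested at 20 µM; growth read once vehicle control cultures reached saturation at 30 °C; 1 = growth at the plate median or of vehicle wells; lower values mean less growth of the strain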
- Condition Set: S. cerevisiae deletion strains, growth OD, locus YLR384C, strain iki3, hits give low values
The whole screen tested about 5,500 compounds, of which about 2,000 (36%) were called active. Not shown: some 18% with an inconclusive outcome. This is one part of the list.
Readout Kind: normalized growth
// keep it numeric: no unit symbol after the value

O=C(O)CN1C(=O)c2cccc3cccc(c23)C1=O | 0.973
COc1cc([C@@H]2c3cc4c(c(O)c3C[C@H]3COC(=O)[C@@H]32)OCO4)cc(OC)c1OC | 0.98
Nc1nc2ncc(=O)[nH]c2c(=O)[nH]1 | 0.968

Suppose we examine the compound COc1ccc2c(c1OC)C(=O)OC2[C@H]1c2c(cc3c(c2OC)OCO3)CCN1C (stereo partly specified) ; what normalized growth value has been reported?
1

Also check NC(CO)C(=O)NNCc1ccc(O)c(O)c1O (stereo unspecified)
1

Also check O=C(O)c1ccccc1-c1c2cc(Br)c(=O)cc-2oc2[c]([Hg])c(O)c(Br)cc12
1.02
